Molecular target: Human immunodeficiency virus type 1 integrase (Human immunodeficiency virus 1, UniProt Q7ZJM1)
Sequence (Q7ZJM1 whole entry): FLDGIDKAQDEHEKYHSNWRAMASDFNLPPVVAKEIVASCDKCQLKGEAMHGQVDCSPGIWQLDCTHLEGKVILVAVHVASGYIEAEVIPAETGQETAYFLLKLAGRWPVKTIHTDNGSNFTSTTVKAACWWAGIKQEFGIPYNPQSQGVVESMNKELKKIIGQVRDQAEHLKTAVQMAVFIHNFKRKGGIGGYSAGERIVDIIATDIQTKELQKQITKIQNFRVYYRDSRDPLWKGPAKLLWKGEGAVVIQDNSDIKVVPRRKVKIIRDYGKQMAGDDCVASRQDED
Experiment: Inhibition of HIV1 integrase strand transfer activity
Consider the following compounds; for each one, report its IC50.

Looking up `CN[C@@H](Cc1ccc(Oc2cc3cc(c2O)-c2cccc4c(c[nH]c24)C[C@@H](N)C(=O)N[C@H](c2cc(Cl)c(O)c(Cl)c2)C(=O)N[C@H]3C(=O)O)cc1)C(=O)O` , I see its IC50 listed as > 100 µM

Looking up `CN1C(=O)[C@@H](c2cc(Cl)c(O)c(Cl)c2)NC(=O)[C@@H]2NC(=O)[C@@H](c3cc(Cl)c(O)c(Cl)c3)NC(=O)[C@H](NC(=O)C(=O)c3cc(Cl)c(O)c(Cl)c3)Cc3c[nH]c4c(cccc34)-c3cc2cc(c3O)Oc2ccc(cc2)C[C@H]1C(=O)O` , I see its IC50 listed as 8 µM

----------
Molecular target: Human immunodeficiency virus type 1 integrase (Human immunodeficiency virus 1, UniProt Q7ZJM1)
Experiment: Inhibition of HIV1 integrase strand transfer activity
Endpoint: IC50 (µM)
Supply the numeric figure in µM, leaving out any unit text.

Looking up `CN[C@@H](Cc1ccc(Oc2cc3cc(c2O)-c2cccc4c(c[nH]c24)C[C@@H](N)C(=O)N[C@H](c2cc(Cl)c(O)c(Cl)c2)C(=O)N[C@H]3C(=O)N[C@@H](C(=O)O)c2cc(Cl)c(O)c(Cl)c2)cc1)C(=O)O` , I see its IC50 listed as 45

Looking up CN1C(=O)[C@@H](c2cc(Cl)c(O)c(Cl)c2)NC(=O)[C@@H]2NC(=O)[C@@H](c3cc(Cl)c(O)c(Cl)c3)NC(=O)[C@H](NC(=O)C(=O)c3cc(Cl)c(O)c(Cl)c3)Cc3c[nH]c4cc(ccc34)-c3cc2cc(c3O)Oc2ccc(cc2)C[C@H]1C(=O)N[C@@H](C(=O)O)c1ccc(O)cc1 [ISOCOMPLESTATIN] , I see its IC50 listed as 4

Looking up `CN(C(=O)[C@H](N)c1cc(Cl)c(O)c(Cl)c1)[C@@H](Cc1ccc(Oc2cc3cc(c2O)-c2cccc4c(c[nH]c24)C[C@@H](N)C(=O)N[C@H](c2cc(Cl)c(O)c(Cl)c2)C(=O)N[C@H]3C(=O)O)cc1)C(=O)O` , I see its IC50 listed as 86

Looking up `CN1C(=O)[C@@H](c2cc(Cl)c(O)c(Cl)c2)NC(=O)[C@@H]2NC(=O)[C@@H](c3cc(Cl)c(O)c(Cl)c3)NC(=O)[C@H](N)Cc3c[nH]c4c(cccc34)-c3cc2cc(c3O)Oc2ccc(cc2)C[C@H]1C(=O)O` , I see its IC50 listed as 6

----------
Molecular target: Human immunodeficiency virus type 1 integrase (Human immunodeficiency virus 1, UniProt Q7ZJM1)
Assay: Inhibition of HIV1 integrase 3' processing/strand transfer coupled activity
Classify on IC50 using 0 = under 500 nM, 1 = from 500 nM up to 4000 nM, 2 = 4000 nM and over

# input Assign a bin to `CN[C@@H](Cc1ccc(Oc2cc3cc(c2O)-c2cccc4c(c[nH]c24)C[C@@H](N)C(=O)N[C@H](c2cc(Cl)c(O)c(Cl)c2)C(=O)N[C@H]3C(=O)N[C@@H](C(=O)O)c2cc(Cl)c(O)c(Cl)c2)cc1)C(=O)O`
# output 1

# input Assign a bin to `CN[C@@H](Cc1ccc(Oc2cc3cc(c2O)-c2cccc4c(c[nH]c24)C[C@@H](N)C(=O)N[C@H](c2cc(Cl)c(O)c(Cl)c2)C(=O)N[C@H]3C(=O)O)cc1)C(=O)O`
# output 2

# input Assign a bin to CN1C(=O)[C@@H](c2cc(Cl)c(O)c(Cl)c2)NC(=O)[C@@H]2NC(=O)[C@@H](c3cc(Cl)c(O)c(Cl)c3)NC(=O)[C@H](NC(=O)C(=O)c3cc(Cl)c(O)c(Cl)c3)Cc3c[nH]c4c(cccc34)-c3cc2cc(c3O)Oc2ccc(cc2)C[C@H]1C(=O)N[C@@H](C(=O)O)c1ccc(O)cc1 [CHLOROPEPTIN]
# output 0

# input Assign a bin to `CN(C(=O)[C@H](N)c1cc(Cl)c(O)c(Cl)c1)[C@@H](Cc1ccc(Oc2cc3cc(c2O)-c2cccc4c(c[nH]c24)C[C@@H](N)C(=O)N[C@H](c2cc(Cl)c(O)c(Cl)c2)C(=O)N[C@H]3C(=O)O)cc1)C(=O)O`
# output 2

# input Assign a bin to CN1C(=O)[C@@H](c2cc(Cl)c(O)c(Cl)c2)NC(=O)[C@@H]2NC(=O)[C@@H](c3cc(Cl)c(O)c(Cl)c3)NC(=O)[C@H](NC(=O)C(=O)c3cc(Cl)c(O)c(Cl)c3)CC3C(=O)Nc4cc(ccc43)-c3cc2cc(c3O)Oc2ccc(cc2)C[C@H]1C(=O)N[C@@H](C(=O)O)c1ccc(O)cc1 (some centres undefined) [COMPLESTATINS A]
# output 1

# input Assign a bin to `CN1C(=O)[C@@H](c2cc(Cl)c(O)c(Cl)c2)NC(=O)[C@@H]2NC(=O)[C@@H](c3cc(Cl)c(O)c(Cl)c3)NC(=O)[C@H](NC(=O)C(=O)c3cc(Cl)c(O)c(Cl)c3)Cc3c[nH]c4c(cccc34)-c3cc2cc(c3O)Oc2ccc(cc2)C[C@H]1C(=O)O`
# output 1

# input Assign a bin to CN1C(=O)[C@@H](c2cc(Cl)c(O)c(Cl)c2)NC(=O)[C@@H]2NC(=O)[C@@H](c3cc(Cl)c(O)c(Cl)c3)NC(=O)[C@H](NC(=O)C(=O)c3cc(Cl)c(O)c(Cl)c3)CC3(O)C(=O)Nc4cc(ccc43)-c3cc2cc(c3O)Oc2ccc(cc2)C[C@H]1C(=O)N[C@@H](C(=O)O)c1ccc(O)cc1 (some centres undefined) [COMPLESTATIN B]
# output 1

# input Assign a bin to CN1C(=O)[C@@H](c2cc(Cl)c(O)c(Cl)c2)NC(=O)[C@@H]2NC(=O)[C@@H](c3cc(Cl)c(O)c(Cl)c3)NC(=O)[C@H](NC(=O)C(=O)c3cc(Cl)c(O)c(Cl)c3)Cc3c[nH]c4cc(ccc34)-c3cc2cc(c3O)Oc2ccc(cc2)C[C@H]1C(=O)N[C@@H](C(=O)O)c1ccc(O)cc1 [ISOCOMPLESTATIN]
# output 0
